Exercise: state measured viability, T/C for each of the molecules provided.
Tested on: 966289-007-R4-J1-PDC complex spheroid viability;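 note: spheroids exposed to agents for one week before readout; percent viability relative to DMSO vehicle control wells as 100%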
TEST_SUMMARY: Anticancer human tumor 966289-007-R4-J1-PDC patient-derived pancreatic adenocarcinoma cell line growth inhibition [RAS]
MEASUREMENT_PARAMETERS: second compound 0.0316 µM; first compound 0.1 µM; stronger effect = lower value

## Task What measured viability, T/C goes with CC1(O)CCCC1n1c(=O)c(C(F)F)cc2cnc(NC3CCN(S(C)(=O)=O)CC3)nc21 (stereo not drawn) + C=CC(=O)N1CCN(c2nc(OCC3CCCN3C)nc3c(F)c(-c4nc(N)cc(C)c4C(F)(F)F)c(Cl)cc23)C(C)C1 ?
## Result 66.3%

## Task Now consider C=CC(=O)Nc1cc(Nc2nccc(-c3cn(C)c4ccccc34)n2)c(OC)cc1N(C)CCN(C)C + C=CC(=O)N1CCN(c2nc(OCC3CCCN3C)nc3c(F)c(-c4nc(N)cc(C)c4C(F)(F)F)c(Cl)cc23)C(C)C1 and answer again.
## Result 98.7%

## Task Now consider CC(C)n1nc(-c2ccc3oc(N)nc3c2)c2c(N)ncnc21 + C#Cc1c(F)ccc2cc(O)cc(-c3ncc4c(N5CC6CCC(C5)N6)nc(OCC56CCCN5CC(F)C6)nc4c3F)c12 and answer again.
## Result 26.6%
